System: COLO 205 colon
Experiment: NCI tumour cell line growth inhibition, 48 h
We begin with a simple list: items and their reported TGI.
State just the number; it will be interpreted in µM.

compound="COC(=O)[C@@H]1c2cc3c(c(O)c2[C@@H](OC2OC(C)C(OC)C(C)(OC)C2OC)C[C@]1(C)O)C(=O)c1c(O)cc2c(c1C3=O)O[C@H]1O[C@]2(C)[C@H](O)[C@@H](N(C)C)[C@@H]1O (stereo not given in full)" measurednumber=0.0351

# ---- query compound ----
Q) Reported TGI, compound "Cc1cc2nc(NCCN)n(Cc3ccc(F)c(Cl)c3)c2cc1C" : ____
A) 3.38

###

Tested on: SK-MEL-5 melanoma
Assay: NCI tumour cell line growth inhibition, 48 h; in the data active = GI50 below about 0.43 µM; inactive = the rest
Would you mind answering with one of these outcomes? active, inactive

Q) What classification did "Oc1c(Cl)cc(Cl)c(Cl)c1CNCCNCc1c(O)c(Cl)cc(Cl)c1Cl" end up with in this test?
A) inactive

Q) What classification did "CN[C@H]1CN(c2ccc3c(=O)c(C(=O)O)cn(-c4nccs4)c3n2)C[C@@H]1OC" end up with in this test?
A) inactive

Q) What classification did "C=CN(C(=O)N1CCN(c2cc3c(cc2F)c(=O)c(C(=O)O)cn3C2CC2)CC1)c1nc(-c2ccc(OC)cc2)cs1" end up with in this test?
A) inactive

Q) What classification did "O=c1oc2ccc(I)cc2c(=O)n1-c1ccc(Br)cc1F" end up with in this test?
A) active

Q) What classification did "CCCCCCCCCCCCCCCC1=NCC[N+]1(CCO)CCO" end up with in this test?
A) inactive

Q) What classification did COc1cc(/C=C2\CC3C4CC=C5C[C@@H](OC(C)=O)CC[C@]5(C)C4CC[C@]3(C)C2=O)ccc1OCCN1CCCCC1 (some centres undefined) end up with in this test?
A) inactive

Q) What classification did "COc1ccc(C(=O)C(CN(C)C)CN(C)C)cc1" end up with in this test?
A) inactive

Q) What classification did "Cc1nn(CNc2ccccc2C(F)(F)F)c(=S)n1/N=C/c1cccc2cccnc12" end up with in this test?
A) inactive

Q) What classification did "Nc1nc(/C=C\c2ccc([N+](=O)[O-])s2)nc(N2CCN(c3ccccc3)CC2)n1" end up with in this test?
A) active

###

Tested on: SF-268 CNS
Test: NCI tumour cell line growth inhibition, 48 h; in the data active = GI50 below about 0.43 µM; inactive = the rest
Would you mind answering with one of these outcomes? active, inactive

Q) What classification did COc1cc(/C=C2\CC3C4CC=C5C[C@@H](OC(C)=O)CC[C@]5(C)C4CC[C@]3(C)C2=O)ccc1OCCN1CCCCC1 (some centres undefined) end up with in this test?
A) inactive

Q) What classification did "Clc1c(Cl)[n+](Cc2ccc3ccccc3c2)cn1Cc1ccc2ccccc2c1" end up with in this test?
A) inactive

Q) What classification did "COc1ccc2c(c1)C(=O)c1c-2n(CCCN(C)C)c(=O)c2ccccc12" end up with in this test?
A) active

###

Tested on: SK-MEL-2 melanoma
Experiment: NCI tumour cell line growth inhibition, 48 h
We begin with a simple list: items and their reported GI50.

Below, each entry is followed by its recorded GI50 result.
smilesnotation=CCc1ccc(Oc2c(-c3ccc(OCc4ccc(Cl)cc4)cc3O)n[nH]c2C(F)(F)F)cc1 result="1750 nM"
smilesnotation=O=C(CSc1nc2c(n1Nc1ccccc1)-c1ccccc1SC2)Nc1nc(-c2ccc(Cl)cc2)cs1 result="37200 nM"
smilesnotation=CNC(=O)c1c(C)oc2cc(Oc3ncnc4cc(OC)c(OC)cc34)ccc12 result="> 100000 nM"

# ---- query molecule ----
Q) Reported GI50, molecule "CC[C@H](C)[C@H](NC(=O)[C@H]1CCCCN1C)C(=O)N(C)[C@H](C[C@@H](OC(C)=O)c1cccc(C(=O)N[C@@H](Cc2ccccc2)C[C@H](C)C(=O)OC)n1)C(C)C" : ____
A) 2.5 nM
